Hey, just so you know, these numbers are from patent US9423396B2.

# ASSAY_METHOD_TEXT: Spectroscopic measurements (absorption, emission, quantum yield, extinction coefficient)
# Type: physicochemical
# EXPERIMENTAL_SETUP: BDNCA library, extinction coefficient; in M-1 cm-1 (unit assumed)
ENDPOINT_NAME: ε

[[record]]
chemical_structure = "COc1ccc([N+](=O)[O-])cc1/C=C/C1=[N+]2C(=C(c3ccc(NC(=O)CCl)cc3)c3cccn3[B-]2(F)F)C(C)=C1"
readout_value = "53,547"

[[record]]
chemical_structure = "CC1=CC(/C=C/c2ccc(OCc3ccccc3)c(OCc3ccccc3)c2)=[N+]2C1=C(c1ccc(NC(=O)CCl)cc1)c1cccn1[B-]2(F)F"
readout_value = "79,908"

[[record]]
chemical_structure = "COc1cc(/C=C/C2=[N+]3C(=C(c4ccc(NC(=O)CCl)cc4)c4cccn4[B-]3(F)F)C(C)=C2)cc(I)c1OC"
readout_value = "70,847"


----------
# ASSAY_METHOD_TEXT: Spectroscopic measurements (absorption, emission, quantum yield, extinction coefficient)
# Format: physicochemical
# EXPERIMENTAL_SETUP: BDNCA library, extinction coefficient; in M-1 cm-1 (unit assumed)
ENDPOINT_NAME: ε

[[record]]
chemical_structure = "COc1cc(OC)c(/C=C/C2=[N+]3C(=C(c4ccc(NC(=O)CCl)cc4)c4cccn4[B-]3(F)F)C(C)=C2)c(OC)c1"
readout_value = "18,398"

[[record]]
chemical_structure = "CC1=CC(/C=C/c2cccc(O)c2)=[N+]2C1=C(c1ccc(NC(=O)CCl)cc1)c1cccn1[B-]2(F)F"
readout_value = "38,719"

[[record]]
chemical_structure = "CCCCOc1ccc(/C=C/C2=[N+]3C(=C(c4ccc(NC(=O)CCl)cc4)c4cccn4[B-]3(F)F)C(C)=C2)cc1"
readout_value = "42,563"

[[record]]
chemical_structure = "COc1cc(/C=C/C2=[N+]3C(=C(c4ccc(NC(=O)CCl)cc4)c4cccn4[B-]3(F)F)C(C)=C2)ccc1OCCBr"
readout_value = "54,371"

[[record]]
chemical_structure = "CC1=CC(/C=C/c2c(C)c(C)c(C)c(C)c2C)=[N+]2C1=C(c1ccc(NC(=O)CCl)cc1)c1cccn1[B-]2(F)F"
readout_value = "36,522"

[[record]]
chemical_structure = "COc1cc(/C=C/C2=[N+]3C(=C(c4ccc(NC(=O)CCl)cc4)c4cccn4[B-]3(F)F)C(C)=C2)cc(OC)c1O"
readout_value = "31,579"

[[record]]
chemical_structure = "COc1ccc(/C=C/C2=[N+]3C(=C(c4ccc(NC(=O)CCl)cc4)c4cccn4[B-]3(F)F)C(C)=C2)cc1O"
readout_value = "36,796"

[[record]]
chemical_structure = "CC(=O)Nc1ccc(/C=C/C2=[N+]3C(=C(c4ccc(NC(=O)CCl)cc4)c4cccn4[B-]3(F)F)C(C)=C2)cc1"
readout_value = "18,947"

[[record]]
chemical_structure = "CC1=CC(/C=C/c2ccc(C#N)cc2)=[N+]2C1=C(c1ccc(NC(=O)CCl)cc1)c1cccn1[B-]2(F)F"
readout_value = "49,977"

[[record]]
chemical_structure = "Cc1cc(/C=C/c2ccc(CO)o2)n2c1C(c1ccc(NC(=O)CCl)cc1)=C1C=CC=[N+]1[B-]2(F)F"
readout_value = "40,366"

[[record]]
chemical_structure = "CC1=CC(/C=C/c2ccc(N(C)CCC#N)cc2)=[N+]2C1=C(c1ccc(NC(=O)CCl)cc1)c1cccn1[B-]2(F)F"
readout_value = "73,593"

[[record]]
chemical_structure = "CC1=CC(/C=C/c2ccc(-c3cncnc3)cc2)=[N+]2C1=C(c1ccc(NC(=O)CCl)cc1)c1cccn1[B-]2(F)F"
readout_value = "59,314"

[[record]]
chemical_structure = "COc1ccc(/C=C/c2cc(C)c3n2[B-](F)(F)[N+]2=CC=CC2=C3c2ccc(NC(=O)CCl)cc2)c(OC)c1"
readout_value = "44,485"

[[record]]
chemical_structure = "Cc1cc(/C=C/c2ccc(-c3ccccc3)cc2)n2c1C(c1ccc(NC(=O)CCl)cc1)=C1C=CC=[N+]1[B-]2(F)F"
readout_value = "39,542"

